- measurement_target: beta-catenin/TCF4 engagement (Homo sapiens, UniProt P35222)
- Construct: expressed in transfected cells; host or cells: HEK293
- Sequence (P35222 whole entry): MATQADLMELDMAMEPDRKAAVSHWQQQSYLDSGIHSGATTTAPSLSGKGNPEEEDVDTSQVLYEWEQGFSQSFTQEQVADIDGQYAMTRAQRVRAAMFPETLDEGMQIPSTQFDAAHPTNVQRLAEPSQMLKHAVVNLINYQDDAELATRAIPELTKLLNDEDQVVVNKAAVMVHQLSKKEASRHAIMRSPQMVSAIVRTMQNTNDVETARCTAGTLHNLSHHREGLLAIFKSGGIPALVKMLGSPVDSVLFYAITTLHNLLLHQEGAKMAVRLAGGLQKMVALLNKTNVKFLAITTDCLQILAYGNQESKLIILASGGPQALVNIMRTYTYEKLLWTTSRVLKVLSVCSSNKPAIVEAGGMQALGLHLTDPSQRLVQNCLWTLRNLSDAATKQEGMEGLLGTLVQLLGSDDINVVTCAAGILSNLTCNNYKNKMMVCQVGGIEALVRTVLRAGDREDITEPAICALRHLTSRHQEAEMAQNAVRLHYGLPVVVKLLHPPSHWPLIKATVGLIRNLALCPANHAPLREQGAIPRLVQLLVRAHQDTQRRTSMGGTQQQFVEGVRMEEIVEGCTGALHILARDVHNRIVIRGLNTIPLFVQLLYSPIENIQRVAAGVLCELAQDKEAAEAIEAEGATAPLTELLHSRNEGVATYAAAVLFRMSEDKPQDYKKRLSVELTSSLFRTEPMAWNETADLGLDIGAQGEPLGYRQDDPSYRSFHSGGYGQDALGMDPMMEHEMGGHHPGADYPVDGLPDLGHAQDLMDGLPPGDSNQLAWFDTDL
- assay_name: Nano-BRET target engagement assay (B-cat-Halo & TCF4-Luc in HEK293 cells)
- Assay type: cell-based
- test_context: absolute IC50; read-out: NanoBRET Abs IC50
Field: IC50. Provide a value for each of the compounds that follow.
Answers are plain numbers, in µM.

Guide cases for IC50, answers given:
{"compound": "CC(=O)N1CCC[C@]12CC=CCCCC1(CCCC=CCCCCCC[C@@](C)(C(=O)N[C@@H](Cc3ccsc3)C(=O)N[C@@H](Cc3csc4ccccc34)C(=O)N[C@@H](CCC(N)=O)C(N)=O)NC(=O)[C@H](CC(N)=O)NC(=O)[C@H](Cc3ccccc3)NC(=O)[C@H](C)NC(=O)[C@H](C)NC(=O)[C@H](CCC(=O)O)NC(=O)[C@H](CC(=O)O)NC1=O)NC(=O)[C@H](C)NC(=O)[C@H](CC(=O)O)NC2=O (some centres unmarked)", "measurement_target": "beta-catenin/TCF4 engagement (Homo sapiens, UniProt P35222)", "output_unit": "µM", "IC50": 28.8}
{"compound": "CC(=O)N1CCC[C@]12CC=CCCCC1(CCCC=CCCCOC(=O)N3CC[C@@](C(=O)N[C@@H](Cc4ccccc4Cl)C(=O)N[C@@H](Cc4csc5ccccc45)C(=O)N[C@@H](CCC(N)=O)C(N)=O)(C3)NC(=O)[C@H](CO)NC(=O)[C@H](Cc3ccccc3)NC(=O)[C@H](C)NC(=O)[C@H](C)NC(=O)[C@H](CC(=O)O)NC(=O)[C@H](CC(=O)O)NC1=O)NC(=O)[C@H](Cc1ccccc1)NC(=O)[C@H](CC(=O)O)NC2=O (some centres unmarked)", "measurement_target": "beta-catenin/TCF4 engagement (Homo sapiens, UniProt P35222)", "output_unit": "µM", "IC50": 23.9}
{"compound": "CC(=O)N1CCC[C@]12CC=CCCCC1(CCCC=CCCCCCC[C@@](C)(C(=O)N[C@@H](Cc3ccccc3)C(=O)N[C@@H](Cc3csc4ccccc34)C(=O)N[C@@H](CCC(N)=O)C(N)=O)NC(=O)[C@H](CC(N)=O)NC(=O)[C@H](Cc3ccccc3)NC(=O)[C@H](C)NC(=O)[C@H](C)NC(=O)[C@H](CC(=O)O)NC(=O)[C@H](CC(=O)O)NC1=O)NC(=O)[C@H](CC(C)(C)C)NC(=O)[C@H](CC(=O)O)NC2=O (some centres unmarked)", "measurement_target": "beta-catenin/TCF4 engagement (Homo sapiens, UniProt P35222)", "output_unit": "µM", "IC50": 12.1}

Prompt: IC50 of CC(=O)N1CCC[C@]12CC=CCCCC1(CCCC=CCCCOC(=O)N3CC[C@@](C(=O)N[C@@H](Cc4ccccc4)C(=O)N[C@@H](Cc4csc5ccccc45)C(=O)N[C@@H](CO)C(N)=O)(C3)NC(=O)[C@H]([C@@H](C)O)NC(=O)[C@H](Cc3cccc(C(F)(F)F)c3)NC(=O)[C@H](C)NC(=O)[C@H](C)NC(=O)[C@H]([C@@H](C)O)NC(=O)[C@H](CC(=O)O)NC1=O)NC(=O)[C@H](CC(C)(C)C)NC(=O)[C@H](CC(=O)O)NC2=O (some centres unmarked) on beta-catenin/TCF4 engagement (Homo sapiens, UniProt P35222)?
Completion: 28.4
